# EXPERIMENT NOTES: molar heat capacity at constant pressure
# CONDITION: 383.15 K; 101.33 kPa; Liquid; modulated-temperature differential scanning calorimetry MDSC
Listed next: entries and their corresponding molar heat capacity at constant pressure.
Express your answer in J/K/mol, writing the number without its unit.

MOLECULE	NUMERIC VALUE
CCCC[n+]1ccccc1.O=S(=O)([N-]S(=O)(=O)C(F)(F)F)C(F)(F)F [1-butylpyridinium bis[(trifluoromethyl)sulfonyl]imide]	631

# query: molar heat capacity at constant pressure of entry CCCCCC[n+]1ccn(C)c1.O=S(=O)([N-]S(=O)(=O)C(F)(F)F)C(F)(F)F
711

Please answer likewise for CCCCn1cc[n+](C)c1.O=S(=O)([O-])C(F)(F)F [1-butyl-3-methylimidazolium trifluoromethanesulfonate]
468

Please answer likewise for CCCCCCn1cc[n+](C)c1.O=S(=O)([O-])C(F)(F)F [1-hexyl-3-methylimidazolium trifluoromethanesulfonate]
547

Please answer likewise for CCn1cc[n+](C)c1.O=S(=O)([O-])C(F)(F)F [1-ethyl-3-methylimidazolium trifluoromethanesulfonate]
412

Please answer likewise for CCCCCCCCn1cc[n+](C)c1.O=S(=O)([O-])C(F)(F)F [1-octyl-3-methylimidazolium trifluoromethanesulfonate]
635

All values here come from the NIST ThermoML archive (doi:10.1016/j.fluid.2006.03.015).
